ASSAY_DETAILS: Presence of cannabinoids in exhaled breath before and after smoking (LC-HRMS)
Assay type: in vivo, human
CONDITION_NOTES: >60 minutes after smoking
VALUE_KIND: Presence in exhaled breath, Percent (%) Positivity

COMPOUND | ENDPOINT_VALUE
CCCCCc1cc(O)c2c(c1)OC(C)(CCC=C(C)C)C=C2 (stereo not drawn) | (0%)
CCCCCc1cc(O)c2c(c1)OC(C)(C)c1ccc(C)cc1-2 | (10.0%)
CCCc1cc(O)c2c(c1)OC(C)(C)[C@@H]1CCC(C)=C[C@@H]21 [Δ^9-THCV, Δ^9-tetrahydrocannabivarin] | (0%)
CCCCCc1cc(O)c(C/C=C(\C)CCC=C(C)C)c(O)c1C(=O)O | (10.0%)

###

ASSAY_DETAILS: Cannabinoid half-lives in exhaled breath, multi-point breath sampling
Type: in vivo, human
CONDITION_NOTES: human, exhaled breath, inhaled, 500 mg, 20-60 Minutes Post-Smoking; read-out: Average Half-Life (minutes ± SD) in breath
VALUE_KIND: half-life (min)
# value in min; strip the unit string

Request: GET /values?readout=half-life&item= `CCCCCc1cc(O)c2c(c1)OC(C)(C)c1ccc(C)cc1-2`
Response: 35.2

###

ASSAY_DETAILS: Stability of target analytes in the breath collection device
Assay type: physicochemical
CONDITION_NOTES: Day 3, breath collection device
VALUE_KIND: Analyte Stability (%) at Room Temperature (20-25° C.)
Write the number in % without appending the unit.

Before answering, review these 5 worked examples.
MOLECULE | MEASUREMENT_UNITS | ENDPOINT_VALUE
CCCc1cc(O)c2c(c1)OC(C)(C)[C@@H]1CCC(C)=C[C@@H]21 [Δ^9-THCV, Δ^9-tetrahydrocannabivarin] | % | 79.7
CCCCCc1cc(O)c2c(c1)OC(C)(CCC=C(C)C)C=C2 (stereo not drawn) | % | 100.6
CCCCCc1cc(O)c(C/C=C(\C)CCC=C(C)C)c(O)c1C(=O)O | % | 99.4
CCCCCc1cc(O)c2c(c1)OC(C)(C)[C@@H]1CCC(C)=C[C@@H]21 [Δ^9-THC, Δ^9-tetrahydrocannabinol] | % | 91.3
CCCCCc1cc(O)c2c(c1)OC(C)(C)c1ccc(C)cc1-2 | % | 104.5

In the following, a different molecule is considered.
Request: Request the reported Analyte Stability (%) at Room Temperature (20-25° C.) associated with `CCCCCc1cc(O)c(C/C=C(\C)CCC=C(C)C)c(O)c1`
Response: 97.5

###

ASSAY_DETAILS: Cannabinoid half-lives in exhaled breath, multi-point breath sampling
Format: in vivo, human
CONDITION_NOTES: human, exhaled breath, inhaled, 500 mg, 40 Minutes Post-Smoking; read-out: Cannabinoid Half-Lives (min) in breath, back-to-back sampling, Average
Each entry below carries its recorded half-life.
Supply the numeric figure in min, leaving out any unit text.

MOLECULE | MEASUREMENT_UNITS | ENDPOINT_VALUE
CCCCCc1cc(O)c2c(c1)OC(C)(CCC=C(C)C)C=C2 (centres unmarked) [CBC, cannabichromene] | min | 3.6

We now examine a further molecule.
Request: Item CCCCCc1cc(O)c2c(c1)OC(C)(C)c1ccc(C)cc1-2 [CBN, cannabinol] has what recorded half-life?
Response: 6.1
